tested on: MRSA OM58; assay: In vitro infectivity assay (MIC), broth dilution, Exp. Ex. 1-1; type: cell-based, Staphylococcus aureus; settings: MRSA OM58; Mueller-Hinton broth, 35° C., 24 hours
Measurement type: MIC MRSA OM58 (mg/L)
Give bare numbers, in mg/L.

{"Molecule": "CCOc1ccc(CCC(=O)O[C@H]2[C@H](Oc3c(-c4ccc(O)c(O)c4)oc4cc(O)cc(O)c4c3=O)O[C@H](CO)[C@@H](O)[C@@H]2OC(=O)CCc2ccc(OCC)cc2)cc1 [Compound 15b]", "U": "mg/L", "MIC MRSA OM58": 8}

# map each molecule to its MIC MRSA OM58
1. Cc1ccc(CCC(=O)O[C@H]2[C@H](Oc3c(-c4ccc(O)c(O)c4)oc4cc(O)cc(O)c4c3=O)O[C@H](CO)[C@@H](O)[C@@H]2OC(=O)CCc2ccc(C)cc2)cc1 [Compound 15c]
2. O=C(CCc1ccc(F)cc1)O[C@H]1[C@H](Oc2c(-c3ccc(O)c(O)c3)oc3cc(O)cc(O)c3c2=O)O[C@H](CO)[C@@H](O)[C@@H]1OC(=O)CCc1ccc(F)cc1 [Compound 15d]
3. O=C(CCc1ccc(O)cc1)O[C@H]1[C@H](Oc2c(-c3ccc(O)c(O)c3)oc3cc(O)cc(O)c3c2=O)O[C@H](CO)[C@@H](O)[C@@H]1OC(=O)CCc1ccc(O)cc1 [Compound 15a]
4. O=C(O[C@H]1[C@H](Oc2c(-c3ccc(O)c(O)c3)oc3cc(O)cc(O)c3c2=O)O[C@H](CO)[C@@H](O)[C@@H]1OC(=O)c1ccc(F)cc1)c1ccc(F)cc1 [Compound 15g]

[2, 2, 4, 16]
